These entries and their values trace back to the supplement of paper PMC6555819.

test system: PPARg DBDmut IVT, anti-PPARg (DBD mutation: PPARg1 K132A/R137A, NR concentration 270 nM); assay: PBM binding z-score (relative to random genomic background probes); higher = stronger binding; sequences stand for … in GC…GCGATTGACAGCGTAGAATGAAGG
Each item that follows carries a reported PBM binding z-score.
Lab note: record just the number, no unit beside it.

Here are 5 sequences together with their reported answers.
[
  {
    "RESIDUE STRING": "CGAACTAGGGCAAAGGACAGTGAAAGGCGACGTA",
    "PBM binding z-score": 0.104
  },
  {
    "RESIDUE STRING": "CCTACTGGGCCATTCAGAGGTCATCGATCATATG",
    "PBM binding z-score": -0.27
  },
  {
    "RESIDUE STRING": "TAGCCTAGGCCATGGGCCAGTATACCACGCGAAC",
    "PBM binding z-score": -1.11
  },
  {
    "RESIDUE STRING": "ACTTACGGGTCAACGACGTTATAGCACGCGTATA",
    "PBM binding z-score": 0.774
  },
  {
    "RESIDUE STRING": "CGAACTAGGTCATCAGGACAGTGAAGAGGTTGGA",
    "PBM binding z-score": 0.121
  }
]

Now let's try a different one.
Short answer please: PBM binding z-score, PPARg DBDmut IVT, anti-PPARg (DBD mutation: PPARg1 K132A/R137A, NR concentration 270 nM), entry "CATACTAGGTCAAAGGTCAAAGTCGAGCCAACCA"
3.65
